- System: 786-0
- runDescription: NCI tumour cell line growth inhibition, 48 h
Calls of active or inactive are those of the source. Rule as the data show it: active = GI50 up to about 1.1 µM and inactive = higher.
Provide the recorded GI50 for the entries that follow.

Please report GI50 for the following compound: `CSc1ncc2c(C#N)c3sc4ccccc4n3c(=O)c2n1`
41.8 µM (inactive)

Write down GI50 measured for item CCC(C)[C@H](NC(=O)N[C@H](C)c1ccccc1)C(=O)OC (stereo partly specified)
> 100 µM (inactive)

# return recorded GI50 for input `CCOC(=O)C1=C(O)C(=O)c2ccsc2C1=O`
> 100 µM (inactive)

Supply GI50 value. Item: `CN/N=C(/CC(=O)c1sc(NNC(C)=O)nc1C)C(=O)Nc1ccc(OC)cc1OC`
> 100 µM (inactive)

Answer with the recorded GI50 for the compound listed here: CCOC(=O)C1OC(=O)CC1C1(C(=O)OCC)C=CC(=O)O1 (stereo unspecified)
> 100 µM (inactive)

Specify GI50 for NNC(=O)CCC(NS(=O)(=O)c1ccc(Cl)cc1)C(=O)NN (stereo unspecified) and stop.
> 100 µM (inactive)

Report GI50, nothing else, for this compound: `CCN(CC)CCC(=O)/C=C/c1ccccc1`
2.67 µM (inactive)

Identify GI50 associated with the compound `Clc1cc(Cl)cc(/C=N/C23CC4CC(CC(C4)C2)C3)c1`
> 10 µM (inactive)

Give GI50 for the following compound: CC(=O)OCC1OC(n2c(C)c(/N=N/c3ccc(C)cc3)c(C)c(C#N)c2=S)C(OC(C)=O)C(OC(C)=O)C1OC(C)=O (stereo unspecified)
27.4 µM (inactive)

Quick one: give measured GI50 for O=C1CC2c3ccccc3CCC2c2ccccc21 (stereo unspecified)
31.3 µM (inactive)

Using the record for O=C1OCC=C1COC1OC(CO)C(O)C(O)C1O (stereo unspecified) , state its measured GI50.
> 100 µM (inactive)
